I'd be grateful if you could share measured GI50 for these entries.
Tested on: HOP-92 NSCLC
Assay: NCI tumour cell line growth inhibition, 48 h

Data request: Fill: GI50 (HOP-92 NSCLC) for this molecule CC[O-].CC[O-].[O-]c1ccccc1C=Nc1ccccc1.[O-]c1ccccc1C=Nc1ccccc1.[Ti+4]
Data returned: > 100 µM

Data request: Fill: GI50 (HOP-92 NSCLC) for this molecule CCCCCCCCN(CCCCCCCC)C(=N)c1ccnc2ccccc12
Data returned: 1.02 µM

Data request: Fill: GI50 (HOP-92 NSCLC) for this molecule CS(=O)(=O)CCNCc1ccc(-c2ccc3ncnc(Nc4ccc(OCc5ccccc5)c(C(F)(F)F)c4)c3c2)o1
Data returned: 4.9 µM

Data request: Fill: GI50 (HOP-92 NSCLC) for this molecule CCc1ccc(C2=C/C(=C/c3ccc(Cl)cc3)C(=O)N2CCc2ccc(S(N)(=O)=O)cc2)cc1
Data returned: 1.67 µM

Data request: Fill: GI50 (HOP-92 NSCLC) for this molecule COc1cccc(-c2nn(-c3ccccc3)cc2-c2ccnc(NCCNS(=O)(=O)c3ccc(C(F)(F)F)cc3)c2)c1
Data returned: 2.12 µM

Data request: Fill: GI50 (HOP-92 NSCLC) for this molecule C#C[C@@]1(O)[C@@H](CO)O[C@@H](n2cc(Cl)c3c(N)ncnc32)[C@@H]1O
Data returned: 0.454 µM

Data request: Fill: GI50 (HOP-92 NSCLC) for this molecule CCC1CCc2nc3sc(C(=O)Nc4ccccc4F)c(N)c3cc2C1 (configuration not stated)
Data returned: 4 µM

Data request: Fill: GI50 (HOP-92 NSCLC) for this molecule CCC[CH2][Sn]1([CH2]CCC)[O]C(c2ccccn2)S(=O)(=O)[O]1 (configuration not stated)
Data returned: 1.41 µM

Data request: Fill: GI50 (HOP-92 NSCLC) for this molecule O=C1C2CC3C(CC2C(=O)[N]1[Sn]([c]1ccccc1)([c]1ccccc1)[c]1ccccc1)C1(Cl)C(Cl)=C(Cl)C3(Cl)C1(Cl)Cl (configuration not stated)
Data returned: 0.0529 µM

Data request: Fill: GI50 (HOP-92 NSCLC) for this molecule Nc1ccccc1NC(=O)c1ccc(CSc2nc(N3CCOCC3)c3cccn3n2)cc1
Data returned: 0.15 µM

Data request: Fill: GI50 (HOP-92 NSCLC) for this molecule CC(=O)O[C@H](C[C@H](C(C)C)N(C)C(=O)[C@@H](NC(=O)[C@H]1CCCCN1C)C(C)C)c1nc(C(=O)N[C@@H](Cc2ccccc2)C[C@H](C)C(=O)O)c(C)s1
Data returned: > 25 µM

Data request: Fill: GI50 (HOP-92 NSCLC) for this molecule CN1CCN(C(=O)c2ccc(NC(=O)Nc3ccc(N(C)c4ccnc(Nc5ccc(CS(C)(=O)=O)cc5)n4)cc3)cc2)CC1
Data returned: > 25 µM

Every entry's value here was drawn from PubChem BioAssay (NCI).
